SUBJECT OF TEST: CXCR4 (Homo sapiens)
Sequence (P61073 whole entry): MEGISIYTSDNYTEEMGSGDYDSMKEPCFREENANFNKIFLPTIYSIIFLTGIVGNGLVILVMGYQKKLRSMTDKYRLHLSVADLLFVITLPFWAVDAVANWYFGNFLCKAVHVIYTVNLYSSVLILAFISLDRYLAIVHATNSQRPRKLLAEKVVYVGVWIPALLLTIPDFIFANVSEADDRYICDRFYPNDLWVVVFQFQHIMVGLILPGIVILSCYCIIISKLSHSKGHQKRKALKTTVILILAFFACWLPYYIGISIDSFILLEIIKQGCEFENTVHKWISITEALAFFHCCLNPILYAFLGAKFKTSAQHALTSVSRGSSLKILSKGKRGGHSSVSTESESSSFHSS
METHOD DESCRIPTION: CXCR4 antagonistic activity: inhibition of Ca2+ movement induced by SDF-1a in CXCR4 transfected CHO cells (Fura-2)
Assay type: cell-based
Reported values of pIC50 for individual entries
By convention, pIC50 is the negative base-10 log of a molar concentration.

| MOLECULE | SUBJECT OF TEST | pIC50 |
| --- | --- | --- |
| c1ccc(CN(Cc2ccccn2)Cc2c3ccccc3cc3ccccc23)nc1 | CXCR4 (Homo sapiens) | 6.11 |
| c1ccc(CN(Cc2ccnc(-c3cc(CN(Cc4ccccn4)Cc4ccccn4)ccn3)c2)Cc2ccccn2)nc1 | CXCR4 (Homo sapiens) | 6.34 |
| c1ccc(CN(Cc2cccc(-c3cccc(CN(Cc4ccccn4)Cc4ccccn4)c3)c2)Cc2ccccn2)nc1 | CXCR4 (Homo sapiens) | 6.46 |

Now consider a different molecule.
Value lookup for pIC50; key = C[C@H](NC(=O)[C@H](CCCNC(=N)N)NC(=O)c1ccc(CNCc2ccccn2)cc1)c1cccc2ccccc12 [Reference Example Compound III, reference compound] 6.62
